Target: T1, human interleukin-2 receptor β-chain (IL-2Rβ; CD122), recombinant protein (human, UniProt P14784 27-240)
T1 construct: also called human IL-2R subunit CD122
T1 sequence: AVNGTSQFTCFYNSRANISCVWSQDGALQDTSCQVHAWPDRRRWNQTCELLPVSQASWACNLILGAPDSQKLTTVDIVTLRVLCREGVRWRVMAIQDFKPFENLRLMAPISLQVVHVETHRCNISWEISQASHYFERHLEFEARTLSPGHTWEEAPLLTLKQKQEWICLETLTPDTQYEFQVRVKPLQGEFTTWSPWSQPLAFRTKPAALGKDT
Assay: P.E. off-rate SPR
koff listing for selected binders.
outcome measure: koff (s⁻¹)

[
  {
    "binder": "15-MP02E06 VHH (periplasmic extract) (VHH, soluble VHH in periplasmic extract) VHH: QVQLVESGGGSVQPGGSLRLSCAASGFTFSNYAMSWVRQAPGKGLEWVASITGFGRGTDYADSVKGRFTISRDNAEDTLYLQMNSLKPEDTAVYYCAKYSSSTYYPPTPARGRDYRGQGTQVTVSS",
    "readout unit": "s⁻¹",
    "experimental result": 0.00169
  },
  {
    "binder": "16-MP02B08 VHH (periplasmic extract) (VHH, soluble VHH in periplasmic extract) VHH: EVQLVESGGGLVQAGGSLRLSCAASGRAIENYPVGWFRQAPGKEREFVAAITWISGSTLYADSVKGRFTISRDNAKNTVYLQMSSLKPEDTALYYCAAALKTITRGQNDYSYWGQGTQVTVSS",
    "readout unit": "s⁻¹",
    "experimental result": 0.000141
  }
]
